Data provenance: patent US20070249639A1

inhibition at 10 µM values by entry
System under test: human topoisomerase II α (Homo sapiens, UniProt P11388)
Construct: purchased Professor Neil Osheroff (Vanderbilt University, Nashville, Tenn., USA)
Sequence (P11388 whole entry): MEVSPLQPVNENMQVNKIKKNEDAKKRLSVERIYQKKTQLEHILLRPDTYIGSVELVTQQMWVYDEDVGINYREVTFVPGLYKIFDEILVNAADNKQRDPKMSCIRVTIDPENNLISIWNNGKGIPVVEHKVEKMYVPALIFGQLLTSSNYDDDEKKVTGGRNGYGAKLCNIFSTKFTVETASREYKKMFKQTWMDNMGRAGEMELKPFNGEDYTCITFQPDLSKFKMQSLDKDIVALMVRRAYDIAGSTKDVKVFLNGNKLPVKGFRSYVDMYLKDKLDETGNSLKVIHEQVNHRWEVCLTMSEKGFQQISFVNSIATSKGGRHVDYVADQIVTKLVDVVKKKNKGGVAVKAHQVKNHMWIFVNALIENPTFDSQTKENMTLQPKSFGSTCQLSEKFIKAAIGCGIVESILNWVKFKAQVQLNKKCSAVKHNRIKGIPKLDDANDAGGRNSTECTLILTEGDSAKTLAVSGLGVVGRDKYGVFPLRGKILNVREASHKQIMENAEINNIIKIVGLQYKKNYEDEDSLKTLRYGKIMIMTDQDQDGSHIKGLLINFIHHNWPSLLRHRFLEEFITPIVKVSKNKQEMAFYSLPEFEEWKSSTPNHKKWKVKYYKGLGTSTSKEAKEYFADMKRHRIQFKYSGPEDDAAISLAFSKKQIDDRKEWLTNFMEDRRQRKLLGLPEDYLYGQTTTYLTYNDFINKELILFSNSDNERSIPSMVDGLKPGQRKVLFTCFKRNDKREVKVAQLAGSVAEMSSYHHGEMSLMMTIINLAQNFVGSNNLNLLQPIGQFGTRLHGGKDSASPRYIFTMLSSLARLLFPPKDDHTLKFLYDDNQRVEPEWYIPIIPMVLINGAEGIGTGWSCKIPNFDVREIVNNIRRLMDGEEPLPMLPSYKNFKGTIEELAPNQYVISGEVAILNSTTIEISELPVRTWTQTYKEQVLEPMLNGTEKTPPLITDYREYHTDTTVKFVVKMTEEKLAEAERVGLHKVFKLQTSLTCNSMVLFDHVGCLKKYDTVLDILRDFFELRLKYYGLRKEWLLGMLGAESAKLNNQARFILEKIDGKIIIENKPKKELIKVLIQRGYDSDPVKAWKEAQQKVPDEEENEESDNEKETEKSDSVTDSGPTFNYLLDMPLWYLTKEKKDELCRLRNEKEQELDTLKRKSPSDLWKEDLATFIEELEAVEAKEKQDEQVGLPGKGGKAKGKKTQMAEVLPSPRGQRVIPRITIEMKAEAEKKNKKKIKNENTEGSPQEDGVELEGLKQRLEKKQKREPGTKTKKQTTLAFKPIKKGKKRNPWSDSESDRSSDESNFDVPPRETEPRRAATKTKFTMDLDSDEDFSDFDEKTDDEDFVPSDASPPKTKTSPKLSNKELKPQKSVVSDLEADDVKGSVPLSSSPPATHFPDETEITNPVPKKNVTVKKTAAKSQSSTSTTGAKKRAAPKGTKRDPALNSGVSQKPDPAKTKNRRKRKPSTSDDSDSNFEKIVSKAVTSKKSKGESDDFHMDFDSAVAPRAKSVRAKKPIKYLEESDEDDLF
Assay name: Topoisomerase II ATPase assay (Malachite Green)
Type: biochemical
Test settings: Percent inhibition @10 μM, Malachite Green assay; read-out: TOPO II inh. (inhibition of the TOPO ATPase activity)
Description: The inhibition of topoisomerase II is measured as follows: Purified human topoisomerase II α was purchased from Professor Neil Osheroff (Vanderbilt University—Nashville, Tenn., USA). The pUC18 (Stratagene) plasmid was introduced into Escherichia coil XL-1 (Stratagene) and purified with the HiSpeed Plasmid Purification kit (Qiagen) according to the manufacturer instructions. The purity of the DNA preparations was evaluated spectrophotometrically (OD260/OD280 ratio) and by agarose gel. […]

# Compound, System under test, inhibition at 10 µM
rows = [
    ("Cc1ccc2cc(Nc3nc(NC(C)(C)C)c4nc[nH]c4n3)ccc2n1", "human topoisomerase II α (Homo sapiens, UniProt P11388)", "50 to 65%"),
]

Would you mind telling me what inhibition at 10 µM value was observed for `c1ccc(C(Nc2nc(Nc3ccc4ncsc4c3)nc3[nH]cnc23)c2ccccc2)cc1` ? < 50%

Would you mind telling me what inhibition at 10 µM value was observed for `CC(C)(CO)Nc1nc(Nc2ccc3ncsc3c2)nc2[nH]cnc12` ? < 50%

Would you mind telling me what inhibition at 10 µM value was observed for `c1cnc2ccc(Nc3nc(NC4CCCCCC4)c4nc[nH]c4n3)cc2c1` ? < 50%

Would you mind telling me what inhibition at 10 µM value was observed for `CC(C)(C)Nc1nc(Nc2ccc3cc(OCCN4CCOCC4)ccc3c2)nc2[nH]cnc12` ? ≥ 80%

Would you mind telling me what inhibition at 10 µM value was observed for CCOC(=O)CC(C)Nc1nc(Nc2ccc3ncsc3c2)nc2[nH]c(CC)nc12 (centres unmarked) ? < 50%

Would you mind telling me what inhibition at 10 µM value was observed for `C=C(C=Cc1nc(OCCN2CCOCC2)sc1C)Nc1nc(NC(C)(C)C)c2nc(C3CCCC3)[nH]c2n1` ? 0%

Would you mind telling me what inhibition at 10 µM value was observed for c1nc2c(NC3C4CC5CC(C4)CC3C5)nc(Nc3ccc4ncsc4c3)nc2[nH]1 (centres unmarked) ? 50 to 65%

====

System under test: human topoisomerase II α (Homo sapiens)
Construct: purchased Professor Neil Osheroff (Vanderbilt University, Nashville, Tenn., USA)
Assay name: Topoisomerase II ATPase assay (Malachite Green)
Assay type: biochemical
Test settings: Percent inhibition @10 μM, Malachite Green assay; read-out: TOPO II inh. (inhibition of the TOPO ATPase activity)
Readout kind: inhibition at 10 µM

# Structure, Readout kind, Result
records = [
    ("Cc1nc2ccc(Nc3nc(NC4CCCCCC4)c4nc[nH]c4n3)cc2s1", "inhibition at 10 µM", "50 to 65%"),
    ("Cc1nc2cc(Nc3nc(NC(C)(C)C)c4nc[nH]c4n3)ccc2s1", "inhibition at 10 µM", "< 50%"),
    ("CC(C)(Cc1ccc(F)cc1)Nc1nc(Nc2ccc3ncccc3c2)nc2[nH]cnc12", "inhibition at 10 µM", "< 50%"),
    ("c1ccc(Nc2nc(Nc3ccc4ncccc4c3)nc3[nH]cnc23)cc1", "inhibition at 10 µM", "50 to 65%"),
]

Would you mind telling me what inhibition at 10 µM value was observed for `CNc1nc2c(NC(C)(C)C)nc(Nc3ccc4ccccc4c3)nc2[nH]1` ? 65 to 80%

Would you mind telling me what inhibition at 10 µM value was observed for `CC(C)(C)Nc1nc(Nc2ccc(-c3nc4ccccc4s3)cc2)nc2[nH]cnc12` ? 65 to 80%

Would you mind telling me what inhibition at 10 µM value was observed for `CC(C)(C)Nc1nc(Nc2ccc3ncccc3c2)nc2[nH]cnc12` ? 50 to 65%

Would you mind telling me what inhibition at 10 µM value was observed for `CC(C)(C)Nc1nc(Nc2ccc3ccccc3c2)nc2[nH]c(N)nc12` ? 65 to 80%

Would you mind telling me what inhibition at 10 µM value was observed for `CC(=O)c1nc2c(NC(C)(C)C)nc(Nc3ccc4ncsc4c3)nc2[nH]1` ? < 50%

Would you mind telling me what inhibition at 10 µM value was observed for `COc1cccc(Nc2nc(Nc3ccc4ncsc4c3)nc3[nH]cnc23)c1` ? < 50%

Would you mind telling me what inhibition at 10 µM value was observed for `CC(C)(Cc1ccc(F)cc1)Nc1nc(Nc2ccc3ncsc3c2)nc2[nH]cnc12` ? < 50%

====

System under test: human topoisomerase II α (Homo sapiens)
Construct: purchased Professor Neil Osheroff (Vanderbilt University, Nashville, Tenn., USA)
Assay name: Topoisomerase II ATPase assay (Malachite Green)
Type: biochemical
Test settings: Percent inhibition @10 μM, Malachite Green assay; read-out: TOPO II inh. (inhibition of the TOPO ATPase activity)
Readout kind: inhibition at 10 µM

# Molecule, inhibition at 10 µM
data = [
    ("CC(C)(C)Nc1nc(Nc2ccc3ccccc3c2)nc2[nH]c(Br)nc12", "50 to 65%"),
    ("c1nc2c(NC3CCCCCCC3)nc(Nc3ccc4ncsc4c3)nc2[nH]1", "50 to 65%"),
    ("c1cnc2ccc(Nc3nc(Nc4ccc5ncccc5c4)c4nc[nH]c4n3)cc2c1", "< 50%"),
]

Would you mind telling me what inhibition at 10 µM value was observed for `Cc1cc2cc(Nc3nc(NC(C)(C)C)c4nc[nH]c4n3)ccc2[nH]1` ? < 50%

Would you mind telling me what inhibition at 10 µM value was observed for OC1CCC(Nc2nc(Nc3ccc4ncsc4c3)nc3[nH]cnc23)CC1 (stereo not drawn) ? < 50%

Would you mind telling me what inhibition at 10 µM value was observed for `CCC(C)(C)Nc1nc(Nc2ccc3ncccc3c2)nc2[nH]cnc12` ? < 50%

Would you mind telling me what inhibition at 10 µM value was observed for `CCC(C)(C)Nc1nc(Nc2ccc3nc(C)sc3c2)nc2[nH]cnc12` ? < 50%

Would you mind telling me what inhibition at 10 µM value was observed for `c1ccc(C(Nc2nc(Nc3ccc4ncccc4c3)nc3[nH]cnc23)c2ccccc2)cc1` ? < 50%

Would you mind telling me what inhibition at 10 µM value was observed for `CC(C)(C)Nc1nc(Nc2ccc3ncsc3c2)nc2[nH]c(C3CCCC3)nc12` ? < 50%

Would you mind telling me what inhibition at 10 µM value was observed for `CC(C)(C)Nc1nc(Nc2ccc3[nH]ccc3c2)nc2[nH]cnc12` ? < 50%

====

System under test: human topoisomerase II α (Homo sapiens)
Readout kind: IC50 (nM)

Illustrative cases are given below, each with its answer.
# Structure, System under test, IC50 / nM
data = [
    ("CCc1nc2c(NC(C)(C)C)nc(Nc3ccc4nc(SC)sc4c3)nc2[nH]1", "human topoisomerase II α (Homo sapiens)", 900),
    ("CCc1nc2c(NC(C)(C)C)nc(Nc3ccc4ncsc4c3)nc2[nH]1", "human topoisomerase II α (Homo sapiens)", 600),
]

a: CC(C)(C)Nc1nc(Nc2ccc3ccccc3c2)nc2[nH]cnc12
b: c1nc2c(NC3CCCCCC3)nc(Nc3ccc4ncsc4c3)nc2[nH]1
Determine, for a and b , which has the greater value of IC50. Write the label of whichever entry you select. b
(b: 8400 nM, a: 3300 nM)

====

inhibition at 10 µM values by entry
System under test: human topoisomerase II α (Homo sapiens, UniProt P11388)
Construct: purchased Professor Neil Osheroff (Vanderbilt University, Nashville, Tenn., USA)
Assay name: Topoisomerase II ATPase assay (Malachite Green)
Assay type: biochemical
Test settings: Percent inhibition @10 μM, Malachite Green assay; read-out: TOPO II inh. (inhibition of the TOPO ATPase activity)
Method: The inhibition of topoisomerase II is measured as follows: Purified human topoisomerase II α was purchased from Professor Neil Osheroff (Vanderbilt University—Nashville, Tenn., USA). The pUC18 (Stratagene) plasmid was introduced into Escherichia coil XL-1 (Stratagene) and purified with the HiSpeed Plasmid Purification kit (Qiagen) according to the manufacturer instructions. The purity of the DNA preparations was evaluated spectrophotometrically (OD260/OD280 ratio) and by agarose gel. […]

Illustrative cases are given below, each with its answer.
# Compound, Result
records = [
    ("CCc1nc2c(NC(C)(C)C)nc(Nc3ccc4ccccc4c3)nc2[nH]1", "< 50%"),
    ("Cc1nc2ccc(Nc3nc(NC(C)(C)Cc4ccc(F)cc4)c4nc[nH]c4n3)cc2s1", "< 50%"),
]

Would you mind telling me what inhibition at 10 µM value was observed for `CC(C)(C)Nc1nc(Nc2ccc3ccccc3c2)nc2[nH]cnc12` ? 65 to 80%

Would you mind telling me what inhibition at 10 µM value was observed for `CCc1nc2c(NC(C)(C)C)nc(Nc3ccc4nc(OCCN5CCOCC5)sc4c3)nc2[nH]1` ? ≥ 80%

====

System under test: human topoisomerase II α (Homo sapiens)
Construct: purchased Professor Neil Osheroff (Vanderbilt University, Nashville, Tenn., USA)
Assay name: Topoisomerase II ATPase assay (Malachite Green)
Format: biochemical
Test settings: Percent inhibition @10 μM, Malachite Green assay; read-out: TOPO II inh. (inhibition of the TOPO ATPase activity)
Protocol: The inhibition of topoisomerase II is measured as follows: Purified human topoisomerase II α was purchased from Professor Neil Osheroff (Vanderbilt University—Nashville, Tenn., USA). The pUC18 (Stratagene) plasmid was introduced into Escherichia coil XL-1 (Stratagene) and purified with the HiSpeed Plasmid Purification kit (Qiagen) according to the manufacturer instructions. The purity of the DNA preparations was evaluated spectrophotometrically (OD260/OD280 ratio) and by agarose gel. […]
inhibition at 10 µM values by entry

Would you mind telling me what inhibition at 10 µM value was observed for `CC(C)(C)Nc1nc(Nc2ccc3nc(C(C)(C)C)sc3c2)nc2[nH]cnc12` ? 65 to 80%
